target: T1, huNav1.7α + β1-β2-β3 (human, UniProt Q15858 1-1988; A5A6L6 19-218; O60939 30-215; Q2KI11 23-215); assay: binding FACS, CHO FlpIn cells
T1 construct: Cell line (CHO FlpIn, HEK FlpIn, transient HEK293T) is named under assay; also called huNav1.7-beta1-beta2-beta3; human Nav1.7α with Navβ1, Navβ2 and Navβ3
recorded metric: EC50 (nM)

Recorded results for 2 binders are shown here.
F010301883 (VHH, I51V vs F0103464B09 (Kabat)) VHH: EVQLVESGGGLVQPGGSLRLSCATTSRAFIRDVFTGWYRRVPGKERELVARVYNGGNTNYADFAKGRFSISRDNAKKMVTLRMSNLKPEDTGVYYCLFSGTINTGREYRSGDYWGQGTLVTVSS = 4.8
F010301606 (VHH, Y100fK vs F0103362B08 (Kabat)) VHH: EVQLVESGGGLVQAGGSLRLSCAASVRPFSTSAMGWFRQAPEKEREAVAGILWNGIVTYYADSVKGRFTISRDNAKNEVYLQMNKLKPEDTAVYYCALDRDYGGRSFSAKEYEYWGQGTLVTVSS = 65

A = F010301595 (VHH, D97A vs F0103362B08 (Kabat)) VHH: EVQLVESGGGLVQAGGSLRLSCAASVRPFSTSAMGWFRQAPEKEREAVAGILWNGIVTYYADSVKGRFTISRDNAKNEVYLQMNKLKPEDTAVYYCALDRAYGGRSFSAYEYEYWGQGTLVTVSS
B = F010301598 (VHH, G99Q vs F0103362B08 (Kabat)) VHH: EVQLVESGGGLVQAGGSLRLSCAASVRPFSTSAMGWFRQAPEKEREAVAGILWNGIVTYYADSVKGRFTISRDNAKNEVYLQMNKLKPEDTAVYYCALDRDYQGRSFSAYEYEYWGQGTLVTVSS
Out of A and B , name the one with the higher EC50. Choose, then provide that item's label.
B
(B: 89 nM, A: 62 nM)
